- testedSystem: human SARM1(50-724) (Homo sapiens, UniProt Q6SZW1)
- Construct: 40 nM human SARM1(50-724)
- Sequence (Q6SZW1 50-724): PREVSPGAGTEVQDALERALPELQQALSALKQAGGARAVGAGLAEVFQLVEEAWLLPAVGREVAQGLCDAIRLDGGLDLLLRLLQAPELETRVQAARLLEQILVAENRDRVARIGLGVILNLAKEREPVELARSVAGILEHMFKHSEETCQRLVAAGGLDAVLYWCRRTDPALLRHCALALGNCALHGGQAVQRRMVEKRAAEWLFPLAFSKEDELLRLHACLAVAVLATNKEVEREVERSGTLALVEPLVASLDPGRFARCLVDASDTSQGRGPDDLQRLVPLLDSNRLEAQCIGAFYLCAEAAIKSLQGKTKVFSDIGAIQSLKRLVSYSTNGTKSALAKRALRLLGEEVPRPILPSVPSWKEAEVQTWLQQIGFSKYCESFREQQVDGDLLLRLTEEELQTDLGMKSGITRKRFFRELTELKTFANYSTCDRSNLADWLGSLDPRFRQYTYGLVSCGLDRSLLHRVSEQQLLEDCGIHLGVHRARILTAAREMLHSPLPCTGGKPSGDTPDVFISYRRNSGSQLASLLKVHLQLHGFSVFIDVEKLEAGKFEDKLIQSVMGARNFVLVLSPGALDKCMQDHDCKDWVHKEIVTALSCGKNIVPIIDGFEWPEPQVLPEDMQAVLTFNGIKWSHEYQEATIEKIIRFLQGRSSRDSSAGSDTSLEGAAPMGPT
- protocolText: SARM1 biological assay: HPLC measurement of NAD and NAM peak areas
- Type: biochemical
pIC50: −log10 of the molar value. Where a name gives a salt, the structure may show the parent alone.
Record form. Attribute: pIC50. Fill in for each entry.

Known pIC50 results, listed for orientation:
compound="FC1(F)CC[C@H](c2nc(Cc3ccncc3)c[nH]2)C1 (single isomer, unassigned) [Example 11A]" observedvalue="> 6.00"
compound="CC(c1ccncc1)c1c[nH]c(C(=O)C(F)(F)F)n1 (racemic) [Example 22, hydrochloride]" observedvalue="> 6.00"
compound="FC1(F)CC1(F)c1nc(Cc2ccncc2)c[nH]1 (centres unmarked)" observedvalue="> 6.00"

Provide pIC50 values for the following items, in order.
1. FC1(F)C[C@H]1Cc1nc(Cc2ccncc2)c[nH]1 (single isomer, unassigned) [Example 21B]
2. Fc1cnccc1Cc1coc(C2CCC(F)(F)C2)n1 (centres unmarked) [Example 18B]
3. FC(F)(F)[C@H]1C[C@H](c2nc(Cc3ccncc3)c[nH]2)C1 (single isomer, unassigned) [Example 31B]
4. F[C@@]1(Cl)C[C@H]1c1nc(Cc2ccncc2)c[nH]1 (single isomer, unassigned) [Example 39C]
5. FC(F)(F)[C@H]1CCO[C@H]1c1nc(Cc2ccncc2)c[nH]1 (relative stereo)

Output:
1. > 6.00
2. 4.00 to 5.00
3. 5.00 to 6.00
4. > 6.00
5. 4.00 to 5.00
